Molecular target: h P2X2/3 (Homo sapiens, UniProt P56373+Q9UBL9)
Sequence (P56373 1-397): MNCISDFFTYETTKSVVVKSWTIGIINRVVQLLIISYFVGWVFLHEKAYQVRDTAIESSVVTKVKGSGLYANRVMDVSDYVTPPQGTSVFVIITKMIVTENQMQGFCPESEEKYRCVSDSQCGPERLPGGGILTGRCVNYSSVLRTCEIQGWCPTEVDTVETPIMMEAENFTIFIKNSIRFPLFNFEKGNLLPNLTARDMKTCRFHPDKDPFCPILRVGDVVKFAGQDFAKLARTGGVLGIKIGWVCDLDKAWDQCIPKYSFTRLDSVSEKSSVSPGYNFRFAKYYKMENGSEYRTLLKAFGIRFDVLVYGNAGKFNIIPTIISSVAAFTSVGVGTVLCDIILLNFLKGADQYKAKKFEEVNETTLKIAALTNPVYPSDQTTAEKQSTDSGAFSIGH
Sequence (Q9UBL9 1-471): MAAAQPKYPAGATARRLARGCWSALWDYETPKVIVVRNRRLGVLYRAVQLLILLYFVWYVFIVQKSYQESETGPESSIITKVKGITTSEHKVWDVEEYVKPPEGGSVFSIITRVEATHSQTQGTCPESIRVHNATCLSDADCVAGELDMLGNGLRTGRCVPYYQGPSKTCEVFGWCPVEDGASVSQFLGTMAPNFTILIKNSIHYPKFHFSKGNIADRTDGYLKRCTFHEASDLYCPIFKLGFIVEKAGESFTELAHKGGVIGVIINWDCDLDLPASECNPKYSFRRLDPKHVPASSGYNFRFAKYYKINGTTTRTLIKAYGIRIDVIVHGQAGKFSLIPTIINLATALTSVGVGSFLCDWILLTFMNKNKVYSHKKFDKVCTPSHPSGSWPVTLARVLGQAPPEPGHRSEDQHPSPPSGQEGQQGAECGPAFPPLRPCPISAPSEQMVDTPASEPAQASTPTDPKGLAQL
Assay: In vitro electrophysiology assay for P2X2/3 (same protocol, 10 μM ATP as agonist)
Conditions: Table 7, range of activity
Description: Cells expressing P2X3 receptors were grown according to standard practice and maintained at 37° C. in a 5% humidified CO2 atmosphere. The cells were seeded into T175 flask 2 days prior to the day of the assay and dissociated from the flasks using TrypLE when grown to confluence of 80-90%. […] One concentration of an antagonist was assessed against a single cell, with different concentrations of the antagonist applied to other cells on the 384 recording substrate. […]
MEASUREMENT_KIND: IC50

compound="COc1cc(-c2ncc(F)cn2)cc2c(NC(C)c3nnc(C)s3)ncnc12 (stereo not shown)" experimental_system="h P2X2/3 (Homo sapiens, UniProt P56373+Q9UBL9)" value_measured="3.16 to 31.6 µM"

INPUT: Query: IC50; subject: COc1cc(-c2ncc(C)cn2)cc2c(NC(C)c3nc(C)no3)ncnc12 (single isomer, unassigned)
OUTPUT: 3.16 to 31.6 µM

INPUT: Query: IC50; subject: COc1cc(-c2ncc(C)cn2)cc2c(NCc3nc(C(F)(F)F)no3)ncnc12
OUTPUT: 3.16 to 31.6 µM

INPUT: Query: IC50; subject: COc1cc(-c2ccc(C)cn2)cc2c(NCc3nnc(C)o3)ncnc12
OUTPUT: 3.16 to 31.6 µM

INPUT: Query: IC50; subject: COc1cc(-c2ncc(C)cn2)cc2c(NCc3ccc(C)nc3)ncnc12
OUTPUT: 0.316 to 3.16 µM

INPUT: Query: IC50; subject: COc1cc(-c2ncc(C)s2)cc2c(NCc3nc(C)no3)ncnc12
OUTPUT: 0.316 to 3.16 µM

INPUT: Query: IC50; subject: COc1cc(-c2ncc(C)s2)cc2c(NC(C)c3noc(C)n3)ncnc12 (stereo not shown)
OUTPUT: 0.316 to 3.16 µM

---

Molecular target: h P2X3 (Homo sapiens, UniProt P56373)
Sequence (P56373 1-397): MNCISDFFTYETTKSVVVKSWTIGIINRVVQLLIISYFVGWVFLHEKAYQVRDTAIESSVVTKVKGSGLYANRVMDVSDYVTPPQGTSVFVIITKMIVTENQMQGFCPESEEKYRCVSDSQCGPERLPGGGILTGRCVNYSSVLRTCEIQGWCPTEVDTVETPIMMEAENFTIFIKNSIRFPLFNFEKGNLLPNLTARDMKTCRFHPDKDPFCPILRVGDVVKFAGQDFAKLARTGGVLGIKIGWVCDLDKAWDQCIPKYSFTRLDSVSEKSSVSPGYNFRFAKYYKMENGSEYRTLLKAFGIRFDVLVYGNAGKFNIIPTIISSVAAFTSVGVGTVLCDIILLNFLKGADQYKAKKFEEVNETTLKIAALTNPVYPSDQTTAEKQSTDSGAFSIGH
Assay: In vitro electrophysiology assay for P2X3 (automated whole-cell patch clamp, Sophion Qube)
Type: cell-based
Settings: Table 6; range of activity; inhibition of P2X3 current, agonist α,β-MeATP (800 nM)
pIC50: −log10 of the molar value.
Reported pIC50 values are given for each entry in this list.

Guide cases for pIC50, answers given:
compound=COc1cc(-c2ccc(F)cn2)cc2c(N[C@H](C)c3ccn(C)n3)ncnc12 measurement_kind=pIC50 value_measured="5.50 to 6.50"
compound=COc1cc(-c2ncc(C)s2)cc2c(NCc3cc(C)no3)ncnc12 measurement_kind=pIC50 value_measured="> 6.50"
compound="COc1cc(-c2ccc(C)cn2)cc2c(NC(C)c3nc(C)no3)ncnc12 (single isomer, unassigned) [Example 163]" measurement_kind=pIC50 value_measured="> 6.50"

// switching to the query compound
INPUT: Query: pIC50; subject: COc1cc(-c2ccc(F)cn2)cc2c(NC(C)c3nnc(C)s3)ncnc12 (single isomer, unassigned) [Example 173]
OUTPUT: 5.50 to 6.50

---

biological target: h P2X3 (Homo sapiens, UniProt P56373); test: In vitro electrophysiology assay for P2X3 (automated whole-cell patch clamp, Sophion Qube); format: cell-based; conditions: Table 6; range of activity; inhibition of P2X3 current, agonist α,β-MeATP (800 nM)
Reported IC50 values are given for each entry in this list.

compound=COc1cc(-c2ncc(C)cn2)cc2c(NCc3nc(C(F)(F)F)no3)ncnc12 measurement_kind=IC50 value_measured="< 316 nM"
compound="Cc1nnc([C@@H](C)Nc2ncnc3c(S(=O)(=O)N(C)C)cc(-c4ccc(F)cc4)cc23)s1 (stereo in doubt)" measurement_kind=IC50 value_measured="< 316 nM"
compound=COc1cc(-c2ccc(F)cn2)cc2c(NCc3nc(C)no3)ncnc12 measurement_kind=IC50 value_measured="316 to 3160 nM"

INPUT: Query: IC50; subject: COc1cc(-c2ncc(C)cn2)cc2c(NCc3nnc(C)s3)ncnc12
OUTPUT: < 316 nM

INPUT: Query: IC50; subject: COc1cc(-c2ncc(C)s2)cc2c(NCc3ccn(C)c(=O)c3)ncnc12
OUTPUT: < 316 nM

INPUT: Query: IC50; subject: COc1cc(-c2ncc(C)cn2)cc2c(NCc3ccn(C)c(=O)c3)ncnc12
OUTPUT: < 316 nM

INPUT: Query: IC50; subject: COc1cc(-c2ccc(C)cn2)cc2c(NC(C)c3nc(C)no3)ncnc12 (single isomer, unassigned) [Example 162]
OUTPUT: 316 to 3160 nM

---

Target: h P2X3 (Homo sapiens)
Sequence (P56373 1-397): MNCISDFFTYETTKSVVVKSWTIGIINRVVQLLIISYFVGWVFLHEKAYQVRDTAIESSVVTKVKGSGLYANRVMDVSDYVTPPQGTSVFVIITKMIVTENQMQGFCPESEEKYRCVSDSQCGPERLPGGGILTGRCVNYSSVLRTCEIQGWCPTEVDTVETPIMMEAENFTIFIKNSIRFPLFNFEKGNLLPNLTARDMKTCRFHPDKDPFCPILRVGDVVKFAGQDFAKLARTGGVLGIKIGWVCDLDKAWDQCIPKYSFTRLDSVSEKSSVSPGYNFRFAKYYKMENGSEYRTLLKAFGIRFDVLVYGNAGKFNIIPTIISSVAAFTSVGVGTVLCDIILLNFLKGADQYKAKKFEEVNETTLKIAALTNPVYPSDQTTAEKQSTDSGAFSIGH
Assay: In vitro electrophysiology assay for P2X3 (automated whole-cell patch clamp, Sophion Qube)
Type: cell-based
Details: Table 6; range of activity; inhibition of P2X3 current, agonist α,β-MeATP (800 nM)
pIC50: −log10 of the molar value.
MEASUREMENT_KIND: pIC50

Guide cases for pIC50, answers given:
molecule="C[C@@H](Nc1ncnc2c(C3CCOCC3)cc(-c3ccc(F)cc3)cc12)c1cnc(C(F)(F)F)nc1 [Example 26]" value_measured="5.50 to 6.50"
molecule="COc1cc(-c2ncc(C)s2)cc2c(NCc3nnc(C)s3)ncnc12 [Example 114]" value_measured="> 6.50"
molecule="COc1cc(-c2ccc(F)cn2)cc2c(NC(C)c3nc(C)no3)ncnc12 (single isomer, unassigned) [Example 175]" value_measured="5.50 to 6.50"
molecule="Cc1cnc(-c2cc(OC3CCOCC3)c3ncnc(NC(C)c4ccc(C)nn4)c3c2)nc1 (single isomer, unassigned) [Example 28]" value_measured="> 6.50"
molecule="COc1cc(-c2ncc(C)cn2)cc2c(NC(C)c3ccc(C(F)(F)F)nn3)ncnc12 (single isomer, unassigned) [Example 120]" value_measured="> 6.50"

// switching to the query molecule
INPUT: pIC50 of COc1cc(-c2ccc(F)cn2)cc2c(NCc3nnc(C)o3)ncnc12 [Example 134] on h P2X3 (Homo sapiens)?
OUTPUT: 5.50 to 6.50

Data origin, for the record: patent US12466820B2
